Attribution: patent US20020035061A1

- System: bacterial isolates
- ASSAY_NAME: microbe, parasite or virus in culture
- Format: cell-based
- PROTOCOL_CONDITIONS: P. aeruginosa 23
MEASURED_ENDPOINT: Peptide MIC + Piperacillin (µg/mL)
Your answer is read as µg/mL, so omit the unit and give the number.

Sample answers from the record:
Peptide MIC + Piperacillin on bacterial isolates for ILRWPWWPWRRK [MBI 11B7CN] is 64

Peptide MIC + Piperacillin on bacterial isolates for ILRRVJPWWPWRRR [MBI 11B9CN] is 0.5

***
Peptide MIC + Piperacillin on bacterial isolates for ILKKWPWWPWRRK [MBI 11CN] is 4

Peptide MIC + Piperacillin on bacterial isolates for KKWWRRALQGLKTAGPAIQSVLNK [MBI 21A2] is 16

Peptide MIC + Piperacillin on bacterial isolates for KWKSFIKKLTSAAKKVVTTAKPLISS [MBI 26] is 32

Peptide MIC + Piperacillin on bacterial isolates for ILKKWPWWPWRRK [MBI 11E3CN] is 1

Peptide MIC + Piperacillin on bacterial isolates for ILKKWVWWPWRRK [MBI 11F3CN] is 0.5

Peptide MIC + Piperacillin on bacterial isolates for ILKKWPWWPWRR [MBI 11G7CN] is 1

====

- Test system: S. aureus
- Assay type: cell-based
- PROTOCOL_CONDITIONS: S. aureus strain SA093
MEASURED_ENDPOINT: MIC
Quick note: unit goes after the number.

For reference, reported MIC for ILKKWPWW PWKKK [MBI 11B10CN] stands at 1 µg/mL

For reference, reported MIC for ILRWPWWPWRRKDMILKKAGS [MBI 11B18CN] stands at 2 µg/mL

For reference, reported MIC for ILKKFPWFPWRRK [MBI 11A6CN] stands at 0.5 µg/mL

For reference, reported MIC for ILRYVYYVYRRK [MBI 11A8CN] stands at 1 µg/mL

For reference, reported MIC for KRRWPWWPWRLI [MBI 11B7CNR] stands at 2 µg/mL

For reference, reported MIC for ILRWPWWPWWPWRRK [MBI 11A9CN] stands at 2 µg/mL

***
For reference, reported MIC for ILKWPWWPWRK [MBI 11B5CN] stands at 1 µg/mL

For reference, reported MIC for ILRWPWWPWRRKIMILKKAGS [MBI 11B16CN] stands at 2 µg/mL

For reference, reported MIC for ILRNPNNPNRRK [MBI 11B7ACN] stands at 1 µg/mL

For reference, reported MIC for ILKKFPFWPWRRK [MBI 11A7CN] stands at 1 µg/mL

====

# MIC per record follows
- Tested on: P. aeruginosa
- Format: cell-based
- PROTOCOL_CONDITIONS: P. aeruginosa strain PA004

Sample answers from the record:
For reference, reported MIC for ILKKWPWWPRRK [MBI 11G6CN] stands at >128 µg/mL

For reference, reported MIC for ILRNPNNPNRRK [MBI 11B7CNF12] stands at >128 µg/mL

For reference, reported MIC for ILRWPWWPWWPWRRK [MBI 11A9CN] stands at 128 µg/mL

For reference, reported MIC for ILKKNPNNPNRK [MBI 11B4ACN] stands at >128 µg/mL

For reference, reported MIC for ILKKWWWPWRRK [MBI 11G4CN] stands at >128 µg/mL

***
For reference, reported MIC for IKKWPWWPWRRK [MBI 11G2CN] stands at >128 µg/mL

====

- System: E. faecalis
- Format: cell-based
- PROTOCOL_CONDITIONS: E. faecalis EFS001
# MIC per record follows
Your answer is read as µg/mL, so omit the unit and give the number.

Sample answers from the record:
For reference, reported MIC for LRWWWPWRRK [MBI 11G25CN] stands at 2

For reference, reported MIC for ILKKWPWWPWRRK [MBI 11CN] stands at 32

For reference, reported MIC for ILRWWVWWVWWRRK [MBI 11F6CN] stands at 16

Then this sequence:
For reference, reported MIC for KRRWPWWPWKKLI [MBI 11CNR] stands at 4

====

- Tested on: E. faecalis
- Format: cell-based
- PROTOCOL_CONDITIONS: E. faecalis EFS001
# MIC per record follows
Your answer is read as µg/mL, so omit the unit and give the number.

Sample answers from the record:
For reference, reported MIC for CLRWPWWPWRRK [MBI 11D19CN] stands at 4

For reference, reported MIC for RWWWPWRRK [MBI 11G28CN] stands at 4

For reference, reported MIC for ILRWPAWPWRRK [MBI 11H06CN] stands at 2

For reference, reported MIC for ILRWPWWPWRAK [MBI 11H11CN] stands at 2

For reference, reported MIC for ILRWAWWPWRRK [MBI 11H05CN] stands at 2

For reference, reported MIC for ILRWPWAPWRRK [MBI 11H07CN] stands at 4

***
For reference, reported MIC for WRWWKPKWRWPKW [MBI 11J02CN] stands at 4

For reference, reported MIC for ILRAPWWPWRRK [MBI 11H04CN] stands at 2

For reference, reported MIC for ILRWPWRRWPWRRK [MBI 11B19CN] stands at 2

For reference, reported MIC for LWPWWPWRRK [MBI 11G24CN] stands at 2

For reference, reported MIC for IARWPWWPWRRK [MBI 11H02CN] stands at 2

For reference, reported MIC for ILRWPWWPARRK [MBI 11H09CN] stands at 4

====

- Tested on: S. aureus
- Format: cell-based
- PROTOCOL_CONDITIONS: S. aureus SA093
# MIC per record follows
Your answer is read as µg/mL, so omit the unit and give the number.

Sample answers from the record:
For reference, reported MIC for RWWWPWRRK [MBI 11G28CN] stands at 1

For reference, reported MIC for ILRRWVWWVWRRK [MBI 11F5CN] stands at 2

For reference, reported MIC for ILRWPWAPWRRK [MBI 11H07CN] stands at 2

***
For reference, reported MIC for ILRWAWWPWRRK [MBI 11H05CN] stands at 1

For reference, reported MIC for IARWPWWPWRRK [MBI 11H02CN] stands at 1

For reference, reported MIC for WPWWPWRRK [MBI 11G27CN] stands at 1

For reference, reported MIC for ILRWPWWPWARK [MBI 11H10CN] stands at 1

For reference, reported MIC for CLRWPWWPWRRK [MBI 11D19CN] stands at 2

For reference, reported MIC for LRWWWPWRRK [MBI 11G25CN] stands at 1

For reference, reported MIC for ILRWPWWPWRRA [MBI 11H12CN] stands at 1

====

- System: S. maltophilia
- Type: cell-based
- PROTOCOL_CONDITIONS: S. maltophilia SMA002
# MIC per record follows
Your answer is read as µg/mL, so omit the unit and give the number.

For reference, reported MIC for ILRRWVWWVWRRK [MBI 11F5CN] stands at 16

For reference, reported MIC for ILRWPWWPARRK [MBI 11H09CN] stands at 64

For reference, reported MIC for ILRWPWAPWRRK [MBI 11H07CN] stands at 128

For reference, reported MIC for WRWWKPKWRWPKW [MBI 11J02CN] stands at 8

For reference, reported MIC for ILRWPWWPWRAK [MBI 11H11CN] stands at 64

For reference, reported MIC for LWPWWPWRRK [MBI 11G24CN] stands at 32

For reference, reported MIC for WPWWPWRRK [MBI 11G27CN] stands at 32

For reference, reported MIC for KRRWPWWPWKKLI [MBI 11CNR] stands at 32

For reference, reported MIC for ILRWPWWPWRRA [MBI 11H12CN] stands at 64

For reference, reported MIC for ILRWPWWPWARK [MBI 11H10CN] stands at 64

***
For reference, reported MIC for LRWPWWPW [MBI 11G26CN] stands at 128

For reference, reported MIC for ILKKWPWWPWRRK [MBI 11] stands at 128

For reference, reported MIC for ILRWAWWPWRRK [MBI 11H05CN] stands at 16

For reference, reported MIC for LRWWWPWRRK [MBI 11G25CN] stands at 32

For reference, reported MIC for ILRWPWRRWPWRRK [MBI 11B19CN] stands at 32

For reference, reported MIC for IARWPWWPWRRK [MBI 11H02CN] stands at 64

For reference, reported MIC for ILRWPWWAWRRK [MBI 11H08CN] stands at 32

For reference, reported MIC for ALRWPWWPWRRK [MBI 11H01CN] stands at 32

For reference, reported MIC for CLRWPWWPWRRK [MBI 11D19CN] stands at 64

For reference, reported MIC for ILRWPAWPWRRK [MBI 11H06CN] stands at 64

For reference, reported MIC for ILPWKWPWWPWRR [MBI 10CN] stands at 64

For reference, reported MIC for RWWWPWRRK [MBI 11G28CN] stands at 32
